- TEST SYSTEM: N-terminal Xaa-Pro-Lys N-methyltransferase 1 (Homo sapiens)
- ASSAY COMMENT: qHTS Assay for Inhibitors of N-terminal methyltransferase 1 (NTMT1): LOPAC validation of the NTMT1 SAHH-coupled ThioGlo3 Assay (AID 1347143);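 note: SAH from peptide methylation measured as thiol fluorescence via SAHH coupling and ThioGlo3; nearly all actives have a fitted effect of over 70% in size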; note: potency is the fitted concentration of half-maximal effect
- APPLIED CONDITIONS: recombinant NTMT1, SAHH-coupled ThioGlo3 fluorescence; series mostly up to 114 µM
- From the text: Assay Submitter (PI): Rong Huang Ph.D, Purdue University, West Lafayette, IN 47907 The N-terminal methytransferase 1 is the first methyltransferase that methylates protein alpha-N-amines and plays an important role in regulating cell mitosis, chromatin interactions and DNA repair. […] To address this unmet need, a panel of assay is created and established to enable quantitative high-throughput screening (qHTS) for novel, potent, and selective small molecule NTMT1 inhibitors. […]
Records with an inconclusive call do not appear. Active and inactive are the calls of the source. Calls come from the whole dose curve; as a rule, active = well fitted inhibition curve with a large enough effect; inconclusive = small, poorly fitted or top-dose-only effect; inactive = no such curve, though single readings can be large or run the other way.
PROPERTY MEASURED: Potency

Known Potency results, listed for orientation:
>>> recorded_measurement("COc1ccc(Cl)cc1C(=O)NCCc1ccc(S(=O)(=O)NC(=O)NC2CCCCC2)cc1")
"inactive"
>>> recorded_measurement("Cc1cc(N)c2ccccc2[n+]1CCCCCCCCCC[n+]1c(C)cc(N)c2ccccc21")
"39.8 µM (active)"
>>> recorded_measurement("NC(N)=NCCC[C@H](N)C(=O)O")
"inactive"
>>> recorded_measurement("NC1[C@H]2CN(c3nc4c(cc3F)c(=O)c(C(=O)O)cn4-c3ccc(F)cc3F)C[C@@H]12 (stereo partly drawn)")
"50.1 µM (active)"
>>> recorded_measurement("CNCCCC1c2ccccc2C=Cc2ccccc21")
"56.2 µM (active)"

Inquiry: Query for N-terminal Xaa-Pro-Lys N-methyltransferase 1 (Homo sapiens): what Potency does the record show for CC[N+](CC)(CC)CCOc1ccc(/C=C/c2ccccc2)cc1 ?
Reply text: 39.8 µM (active)

Inquiry: Query for N-terminal Xaa-Pro-Lys N-methyltransferase 1 (Homo sapiens): what Potency does the record show for CNCCC(Oc1ccc(C(F)(F)F)cc1)c1ccccc1 (stereo not drawn) ?
Reply text: inactive

Inquiry: Query for N-terminal Xaa-Pro-Lys N-methyltransferase 1 (Homo sapiens): what Potency does the record show for CCCCc1ncc(/C=C(\Cc2cccs2)C(=O)O)n1Cc1ccc(C(=O)O)cc1 ?
Reply text: inactive

Inquiry: Query for N-terminal Xaa-Pro-Lys N-methyltransferase 1 (Homo sapiens): what Potency does the record show for O=C1NC(=O)[C@@]2(CCOc3ccc(F)cc32)N1 ?
Reply text: inactive

Inquiry: Query for N-terminal Xaa-Pro-Lys N-methyltransferase 1 (Homo sapiens): what Potency does the record show for Nc1cc(=O)[nH]c(N)n1 ?
Reply text: inactive

Inquiry: Query for N-terminal Xaa-Pro-Lys N-methyltransferase 1 (Homo sapiens): what Potency does the record show for CC(CN(C)C)CN1c2ccccc2CCc2ccccc21 (stereo not drawn) ?
Reply text: inactive

Inquiry: Query for N-terminal Xaa-Pro-Lys N-methyltransferase 1 (Homo sapiens): what Potency does the record show for CCCCN(CCCC)CC(O)c1cc(Cl)cc2c1-c1ccc(Cl)cc1/C2=C/c1ccc(Cl)cc1 (stereo not drawn) ?
Reply text: inactive

Inquiry: Query for N-terminal Xaa-Pro-Lys N-methyltransferase 1 (Homo sapiens): what Potency does the record show for CC(CN1c2ccccc2Sc2ccccc21)N(C)C (stereo not drawn) ?
Reply text: 50.1 µM (active)
